Test: LNP size and polydispersity index (PDI) by dynamic light scattering (DLS)
Type: physicochemical
Details: Table 5; LNP Lipid:DSPC:Cholesterol:DMG-PEG2k 50:10:38.5:1.5 mol %; hEPO mRNA; N:P 6
# maps each entry to its Size

>  <compound>
CCCCCC(CCCCC)C(=O)OCCN(CCOC(=O)C(CCCCC)CCCCC)C(=O)C(N)Cc1ccccc1 (stereo not shown) [Compound 615]

>  <reading-unit>
nm

>  <Size>
104.2

$$$$
>  <compound>
CCCCCCCC(CCCCCCC)C(=O)OCCN(CCOC(=O)C(CCCCCCC)CCCCCCC)C(=O)C(C)N (stereo not shown) [Compound 611]

>  <reading-unit>
nm

>  <Size>
155.4

$$$$
>  <compound>
CCCCCCCC(CCCCCCC)C(=O)OCCN(CCOC(=O)C(CCCCCCC)CCCCCCC)C(=O)C(N)Cc1ccccc1 (stereo not shown) [Compound 618]

>  <reading-unit>
nm

>  <Size>
53.9

$$$$
>  <compound>
CCCCCCCCCC(CCCCCCCCC)C(=O)OCCN(CCOC(=O)C(CCCCCCCCC)CCCCCCCCC)C(=O)CN [Compound 607]

>  <reading-unit>
nm

>  <Size>
68.9

$$$$
>  <compound>
CCCCCCCCC(CC)C(=O)OCCN(CCOC(=O)C(CC)CCCCCCCC)C(=O)C(N)Cc1ccccc1 (stereo not shown) [Compound 617]

>  <reading-unit>
nm

>  <Size>
63.7

$$$$
>  <compound>
CCCCCCCCCCCCC(CC)C(=O)OCCN(CCOC(=O)C(CC)CCCCCCCCCCCC)C(=O)C(N)Cc1ccccc1 (stereo not shown) [Compound 620]

>  <reading-unit>
nm

>  <Size>
56.7

$$$$
>  <compound>
CCCCCCCCCCCCC(CC)C(=O)OCCN(CCOC(=O)C(CC)CCCCCCCCCCCC)C(=O)C(C)N (stereo not shown) [Compound 613]

>  <reading-unit>
nm

>  <Size>
53.7

$$$$

====

Experiment: LNP size and polydispersity index (PDI) by dynamic light scattering (DLS)
Type: physicochemical
Details: Table 5; LNP Lipid:DSPC:Cholesterol:DMG-PEG2k 50:10:38.5:1.5 mol %; hEPO mRNA; N:P 6
Parameter threshold = 80 nm. Response is yes when Size meets or exceeds it, else no.

>  <molecule>
CCCCCCCCCC(CCCCCCCCC)C(=O)OCCN(CCOC(=O)C(CCCCCCCCC)CCCCCCCCC)C(=O)C(N)Cc1ccccc1 (stereo not drawn)

>  <classification>
no

$$$$
>  <molecule>
CCCCCCCCCCCCC(CC)C(=O)OCCN(CCOC(=O)C(CC)CCCCCCCCCCCC)C(=O)CN (stereo not drawn)

>  <classification>
no

$$$$
>  <molecule>
CCCCCCCCCCC(CCCC)C(=O)OCCN(CCOC(=O)C(CCCC)CCCCCCCCCC)C(=O)C(C)N (stereo not drawn)

>  <classification>
no

$$$$
>  <molecule>
CCCCCCCCC(CCCCCC)C(=O)OCCN(CCOC(=O)C(CCCCCC)CCCCCCCC)C(=O)CN (stereo not drawn)

>  <classification>
yes

$$$$
>  <molecule>
CCCCCC(CCCCC)C(=O)OCCN(CCOC(=O)C(CCCCC)CCCCC)C(=O)CN

>  <classification>
yes

$$$$

====

Recorded Encapsulation Efficiency % by entry
Experiment: Encapsulation efficiency (EE %) by fluorescence based Ribogreen assay
Type: physicochemical
Conditions: Table 11; LNP with hEPO mRNA, Lipid:DSPC:Cholesterol:DMG-PEG2k 50:10:38.5:1.5 mol % (ALC-0315: 46.3:9.4:42.7:1.6), N:P ratio 6; HEPES/sodium chloride/sucrose buffer, stored at −80C

>  <molecule>
CCCCCCCCC(CCCCCC)C(=O)OCCN(CCOC(=O)C(CCCCCC)CCCCCCCC)C(=O)C(C)CCN(CC)CCC.Cl (stereo not drawn) [Compound 987j]

>  <Encapsulation Efficiency %, %>
95.7

$$$$
>  <molecule>
CCCCCCCCC(CCCCCC)C(=O)OCCN(CCOC(=O)C(CCCCCC)CCCCCCCC)C(=O)C(C)CCN1CCOCC1.Cl (stereo not drawn) [Compound 987n]

>  <Encapsulation Efficiency %, %>
77.8

$$$$
>  <molecule>
CCCCCCCCC(CCCCCC)C(=O)OCCCCCCN(CCCCO)CCCCCCOC(=O)C(CCCCCC)CCCCCCCC (stereo not drawn) [ALC-0315, reference compound]

>  <Encapsulation Efficiency %, %>
91.0

$$$$
>  <molecule>
CCCCCCCCC(CCCCCC)C(=O)OCCN(CCOC(=O)C(CCCCCC)CCCCCCCC)C(=O)C(C)CCN(CCCC)CCCC.Cl (stereo not drawn) [Compound 987o]

>  <Encapsulation Efficiency %, %>
90.2

$$$$
>  <molecule>
CCCCCCCCC(CCCCCC)C(=O)OCCN(CCOC(=O)C(CCCCCC)CCCCCCCC)C(=O)C(C)CCNCCC.Cl (stereo not drawn) [Compound 987h]

>  <Encapsulation Efficiency %, %>
99.4

$$$$
>  <molecule>
CCCCCCCCCC(CCCCCCCCC)C(=O)OCCN(CCOC(=O)C(CCCCCCCCC)CCCCCCCCC)C(=O)C(C)CCN(C)C.Cl (stereo not drawn) [Compound 987c]

>  <Encapsulation Efficiency %, %>
98.0

$$$$
>  <molecule>
CCCCCCCCC(CCCCCC)C(=O)OCCN(CCOC(=O)C(CCCCCC)CCCCCCCC)C(=O)C(C)CCN(C)CC.Cl (stereo not drawn) [Compound 987f]

>  <Encapsulation Efficiency %, %>
92.3

$$$$
>  <molecule>
CCCCCCCCC(CCCCCC)C(=O)OCCN(CCOC(=O)C(CCCCCC)CCCCCCCC)C(=O)C(C)CCN1CCCCC1.Cl (stereo not drawn) [Compound 987m]

>  <Encapsulation Efficiency %, %>
94.9

$$$$
>  <molecule>
CCCCCCCCC(CCCCCC)C(=O)OCCN(CCOC(=O)C(CCCCCC)CCCCCCCC)C(=O)C(C)CCNCC.Cl (stereo not drawn) [Compound 987e]

>  <Encapsulation Efficiency %, %>
99.4

$$$$
>  <molecule>
CCCCCCCCC(CCCCCC)C(=O)OCCN(CCOC(=O)C(CCCCCC)CCCCCCCC)C(=O)C(C)CCN(CCC)CCC.Cl (stereo not drawn) [Compound 987k]

>  <Encapsulation Efficiency %, %>
87.2

$$$$
>  <molecule>
CCCCCCCCC(CCCCCC)C(=O)OCCN(CCOC(=O)C(CCCCCC)CCCCCCCC)C(=O)C(C)CCN(C)CCC.Cl (stereo not drawn) [Compound 987i]

>  <Encapsulation Efficiency %, %>
94.9

$$$$
>  <molecule>
CCCCCCCCC(CCCCCC)C(=O)OCCN(CCOC(=O)C(CCCCCC)CCCCCCCC)C(=O)C(C)CCN(CC)CC.Cl (stereo not drawn) [Compound 987g]

>  <Encapsulation Efficiency %, %>
95.4

$$$$
